- Tested on: SK-MEL-5
- procedure summary: NCI tumour cell line growth inhibition, 48 h
Active and inactive are the calls of the source. Rule as the data show it: active = GI50 up to about 1.1 µM and inactive = higher.
# GI50 per record follows

> print(dat)
                            smiles.string     value.reported
1  OCc1ccc2c(c1)CC1(C2)Cc2cc3c(cc2C1)CCC3  2.3 µM (inactive)

Return GI50 for the following molecule: N#Cc1c(-c2ccco2)cc(-c2ccc(N)cc2)[nH]c1=O
> 100 µM (inactive)

Return GI50 for the following molecule: COc1ccc2c3c1O[C@]1(C)C34CCN(C)C(C2)C42C=C[C@@]1(OC)c1c(O)ccc(O)c12
> 100 µM (inactive)

* * *

- Tested on: HT-29
- procedure summary: NCI tumour cell line growth inhibition, 48 h
Active and inactive are the calls of the source. Rule as the data show it: active = GI50 up to about 1.1 µM and inactive = higher.
Answer with one of the outcomes given here: True (active), False (inactive)

Examples from the recorded data:
compound	discrete label
CC1(C)O[C@@H]([C@@H](O)[C@H](O)C2SCCCS2)[C@@H](CO)O1	False
C[C@@H]1[C@@H]2[C@@H](C=C3C4CCC5Cc6nc7c(nc6C[C@@]5(C)C4C[C@H](O)[C@]32CO)CC2CCC3C4=C[C@H]5O[C@@]6(OC(C)(CO)C[C@@H]6O)[C@H](C)[C@@]5(O)[C@]4(C)[C@@H](O)CC3[C@]2(C)C7)O[C@]12CCC(C)(C)O2 (some centres undefined)	True

# outcome recorded in this test, key = Nc1nc(CCl)nc(Nc2ccccc2)n1
False

# outcome recorded in this test, key = O=[N+]([O-])c1ccccc1C1SCc2nc3ccccc3n21 (centres undefined)
False

# outcome recorded in this test, key = O=C(c1ccccc1)C(C(=O)c1ccccc1)C1(O)C(=O)c2ccccc2C1=O
False

# outcome recorded in this test, key = COC(=O)[C@@H]1C=C[C@H](NC(C)=O)C1
False

# outcome recorded in this test, key = Cc1cc(C)cc(Sc2c([N+](=O)[O-])ncn2C)c1
False

# outcome recorded in this test, key = Oc1ccc(NCn2c(=S)sc3ccccc32)cc1
False

# outcome recorded in this test, key = COc1ccc(NCc2cc(OC)c(OC)c(OC)c2)cc1
True

* * *

- Test system: 786-0
- procedure summary: NCI tumour cell line growth inhibition, 48 h
Activity calls are given as the source filed them. Rule as the data show it: active = GI50 up to about 1.1 µM and inactive = higher.
Answer with one of the outcomes given here: Y = active, N = inactive

Examples from the recorded data:
compound	discrete label
CC(C)c1c(P(=O)(c2ccccc2)c2ccccc2)n(C)c2ccccc12	N
COc1cc(Br)c(/C=N/N=C(\N)NO)cc1OC	N
COc1ccccc1NC(=O)C1=C(C)NC(C)=C(C(=O)Nc2ccccc2OC)C1c1ccccc1[N+](=O)[O-]	N
OCCN(C1=NCCN1)/[N+](=C/c1ccccc1O)[CH-]c1ccccc1O	N
CCc1cccc(C(C)(C)C)c1NC(=S)N/C=C(/C#N)C(N)=O	N

# outcome recorded in this test, key = C=C=C(C(=O)OC)[S+]([O-])c1ccc([N+](=O)[O-])cc1[N+](=O)[O-] (centres undefined)
N

# outcome recorded in this test, key = O=C(O/N=C1/CCC/C1=C\c1ccccc1)c1ccc(Cl)c(Cl)c1
N

# outcome recorded in this test, key = CC12N=NN(c3ccc([N+](=O)[O-])cc3)C1(O)c1ccccc1C2=O (centres undefined)
N

# outcome recorded in this test, key = CC(C)[Si](OC1=C(C(=O)N(C)c2ccccc2Cl)CCCCC1)(C(C)C)C(C)C
N

# outcome recorded in this test, key = CC1CCC2N(C1)CC1C3(O)CC45OC6(O)C(O)CCC4(C)C6CCC5C3(O)CC(O)C1(O)C2(C)O (centres undefined)
N

# outcome recorded in this test, key = NC1=C(C(=O)O)C(=O)C(Nc2c(O)cccc2C(=O)O)=CC1=O
N

# outcome recorded in this test, key = CCOC(=O)/C(C#N)=C/c1ccc2c(c1)CC1(C2)Cc2cc(CC)c(C(C)O)cc2C1 (centres undefined)
N

# outcome recorded in this test, key = C[C@@H]1CCC2[C@@H](C)[C@@H](O[C@H]3O[C@@H]4O[C@@]5(C)CCC6[C@H](C)CCC([C@H]3C)[C@]64OO5)O[C@@H]3O[C@@]4(C)CCC1[C@@]23OO4 (some centres undefined)
N

# outcome recorded in this test, key = C[C@@H]1[C@@H]2[C@@H](C=C3C4CCC5Cc6nc7c(nc6C[C@@]5(C)C4C[C@H](O)[C@]32CO)CC2CCC3C4=C[C@H]5O[C@@]6(OC(C)(CO)C[C@@H]6O)[C@H](C)[C@@]5(O)[C@]4(C)[C@@H](O)CC3[C@]2(C)C7)O[C@]12CCC(C)(C)O2 (some centres undefined)
Y
